method.notes: Phase I interaction study Part 2 Arm 2: pravastatin
Assay type: in vivo, human
condition: both sexes, human, plasma, oral; Treatment P: pravastatin 40 mg alone; read-out: AUC0-last, Geometric LSM
readout.label: AUC(0-t) (µg·h/mL)
Dear colleague, please return just the value in µg·h/mL, with no unit written.

Request: Find the recorded AUC(0-t) belonging to CC[C@H](C)C(=O)O[C@H]1C[C@H](O)C=C2C=C[C@H](C)[C@H](CC[C@@H](O)C[C@@H](O)CC(=O)O)[C@H]21 and report it.
Result: 130

----------
method.notes: Phase I calcium acetate interaction study
Format: in vivo, human
condition: human, plasma, oral, 300 mg, Concomitant administration with calcium acetate 1334 mg after breakfast
readout.label: AUC(0-t) (ng·h/mL)
Dear colleague, please return just the value in ng·h/mL, with no unit written.

Request: Find the recorded AUC(0-t) belonging to O=C(O)CNC(=O)c1ncc(-c2cccc(Cl)c2)cc1O and report it.
Result: 77400

----------
method.notes: clinical
condition: male, human, plasma, oral, 450 mg
readout.label: AUC(0-inf) (µg·h/mL)
Dear colleague, please return just the value in µg·h/mL, with no unit written.

Request: Find the recorded AUC(0-inf) belonging to O=C(O)CNC(=O)c1ncc(-c2cccc(Cl)c2)cc1O and report it.
Result: 263

----------
method.notes: Phase 1 oral iron interaction study, Cohort 2 (before meal): sucroferric oxyhydroxide
Assay type: in vivo, human
condition: male, human, plasma, oral; 150 mg with sucroferric oxyhydroxide (1000 mg iron), before meal; read-out: AUC(0-inf), LS geometric mean
readout.label: AUC(0-inf) (ng·h/mL)
Dear colleague, please return just the value in ng·h/mL, with no unit written.

Request: Find the recorded AUC(0-inf) belonging to O=C(O)CNC(=O)c1ncc(-c2cccc(Cl)c2)cc1O and report it.
Result: 45700

----------
method.notes: Phase I calcium acetate interaction study
Format: in vivo, human
condition: human, plasma, oral, 300 mg, Vadadustat 300 mg alone, immediately after breakfast; read-out: AUC0-∞
readout.label: AUC(0-inf)
A bare number is not enough; add the unit after it.

Request: Find the recorded AUC(0-inf) belonging to O=C(O)CNC(=O)c1ncc(-c2cccc(Cl)c2)cc1O and report it.
Result: 166 µg·h/mL
